These measurements were taken from ChEMBL document CHEMBL5131389.

tested on: CWR22R; assay: Cytotoxicity against human 22Rv1 cells assessed as reduction in cell viability measured after 72 hrs by MTT assay; assay type: functional
What CC50 was measured for each of the following?
# unit: nM | format: bare number

Input: Form entry - test system: CWR22R; read-out: CC50; compound: `CC(=O)O[C@@]12CO[C@@H]1C[C@H](O)[C@@]1(C)C(=O)[C@H](O)C3=C(C)[C@@H](OC(=O)[C@H](OC(=O)CCCc4cn(CCCNC(=O)[C@@H](Cc5ccccc5)NC(=O)[C@@H](Cc5ccccc5)NC(=O)CCC(=O)NCCCCCC(=O)N(CCCC[C@H](NC(=O)N[C@@H](CCC(=O)O)C(=O)O)C(=O)O)Cc5ccc(Cl)c(F)c5)nn4)[C@@H](NC(=O)OC(C)(C)C)c4ccccc4)C[C@@](O)([C@@H](OC(=O)c4ccccc4)[C@H]21)C3(C)C`
Output: 29

Input: What reported CC50 corresponds to CC(=O)O[C@@]12CO[C@@H]1C[C@H](O)[C@@]1(C)C(=O)[C@H](O)C3=C(C)[C@@H](OC(=O)[C@H](OC(=O)CCCc4cn(CCCNC(=O)[C@H](Cc5ccccc5)NC(=O)[C@H](Cc5ccccc5)NC(=O)CCC(=O)NCCCCCC(=O)N(CCCC[C@H](NC(=O)N[C@@H](CCC(=O)O)C(=O)O)C(=O)O)Cc5ccccc5)nn4)[C@@H](NC(=O)OC(C)(C)C)c4ccccc4)C[C@@](O)([C@@H](OC(=O)c4ccccc4)[C@H]21)C3(C)C (single isomer, unassigned) on CWR22R?
Output: 13

Input: Missing value: CC50, CWR22R, entry CC(=O)O[C@@]12CO[C@@H]1C[C@H](O)[C@@]1(C)C(=O)[C@H](O)C3=C(C)[C@@H](OC(=O)[C@H](O)[C@@H](NC(=O)OC(C)(C)C)c4ccccc4)C[C@@](O)([C@@H](OC(=O)c4ccccc4)[C@H]21)C3(C)C [DOCETAXEL ANHYDROUS] . Fill in?
Output: 1

Input: // map `CC(=O)O[C@@]12CO[C@@H]1C[C@H](O)[C@@]1(C)C(=O)[C@H](O)C3=C(C)[C@@H](OC(=O)[C@H](OC(=O)CCCc4cn(CCCNC(=O)[C@H](Cc5ccc(O)cc5)NC(=O)[C@H](Cc5ccccc5)NC(=O)CCC(=O)NCCCCCC(=O)N(CCCC[C@H](NC(=O)N[C@@H](CCC(=O)O)C(=O)O)C(=O)O)Cc5cccc(Cl)c5)nn4)[C@@H](NC(=O)OC(C)(C)C)c4ccccc4)C[C@@](O)([C@@H](OC(=O)c4ccccc4)[C@H]21)C3(C)C` to recorded CC50 (system: CWR22R)
Output: 2.7

---

molecular target: UniProt Q29550; assay: Stability of the compound in porcine liver esterase assessed as compound remaining measured upto 96 hrs by LCMS based mass spectrometric analysis relative to initial amount; type: ADME; conditions: pig, read-out: Stability
Sequence (Q29550 whole entry): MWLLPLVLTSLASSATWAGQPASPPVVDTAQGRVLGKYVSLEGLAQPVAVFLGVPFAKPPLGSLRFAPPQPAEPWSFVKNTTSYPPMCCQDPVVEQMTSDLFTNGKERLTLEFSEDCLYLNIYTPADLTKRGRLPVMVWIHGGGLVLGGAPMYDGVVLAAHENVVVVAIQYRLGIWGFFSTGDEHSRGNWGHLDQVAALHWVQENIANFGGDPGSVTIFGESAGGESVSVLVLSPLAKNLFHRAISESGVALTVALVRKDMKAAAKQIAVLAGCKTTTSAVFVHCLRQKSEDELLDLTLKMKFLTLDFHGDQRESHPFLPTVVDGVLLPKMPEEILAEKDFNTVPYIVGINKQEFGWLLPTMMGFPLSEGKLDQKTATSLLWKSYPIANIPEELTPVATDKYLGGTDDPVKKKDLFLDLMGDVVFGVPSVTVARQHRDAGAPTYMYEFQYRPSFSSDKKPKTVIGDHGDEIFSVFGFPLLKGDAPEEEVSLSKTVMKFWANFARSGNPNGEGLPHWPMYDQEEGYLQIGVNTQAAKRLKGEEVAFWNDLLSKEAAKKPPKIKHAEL
measurement label: remaining at 96 h (%)
Answer with a number only, understood to be in %.

Input: GET /values?readout=remaining at 96 h&item= `CC(=O)O[C@@]12CO[C@@H]1C[C@H](O)[C@@]1(C)C(=O)[C@H](O)C3=C(C)[C@@H](OC(=O)[C@H](OC(=O)CCCc4cn(CCCNC(=O)[C@H](Cc5ccc(O)cc5)NC(=O)[C@H](Cc5ccccc5)NC(=O)CCC(=O)NCCCCCC(=O)N(CCCC[C@H](NC(=O)N[C@@H](CCC(=O)O)C(=O)O)C(=O)O)Cc5cccc(Cl)c5)nn4)[C@@H](NC(=O)OC(C)(C)C)c4ccccc4)C[C@@](O)([C@@H](OC(=O)c4ccccc4)[C@H]21)C3(C)C`
Output: 60
